The measured values listed here are drawn from the supplement of paper PMC10126150.

System: ATP;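 note: ATP exposure 15 min at 22 °C before imaging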
Test: switch fluorescence ratio, 500 uM ATP over buffer (Cy3 cluster intensity, sum of 5 cycles each) (fold (ratio)); higher = stronger signal-on switching upon ATP binding; sequences stand for … in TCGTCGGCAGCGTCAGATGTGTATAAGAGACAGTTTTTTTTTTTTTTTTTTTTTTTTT…TC
Conditions: aptamer strand: ATP DNA aptamer (quencher-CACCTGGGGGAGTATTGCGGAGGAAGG + anchor), 100 nM annealed; ATP concentration: 500 uM
Label rule, in plain words: switch fluorescence ratio of 1 and up is YES, under 1 is NO.

>>> df
    record_sequence  category_label
 0       AGTCAACCGG             YES
 1       TGGGCCGCCC             YES
 2       ATTTGCGGCT              NO
 3       TTTATCGTCT             YES
 4       AAGGAAGGGG             YES
 5       AAGGTGAGGT             YES
 6       AGCGCAATGA             YES
 7        ATGGAATAT              NO
 8       ATGGTAAAAA             YES
 9       ATTGGGAAAA             YES
10       AGTAAGTATG             YES
11       AAGGGCTTCA             YES
